# Tested on: NOMO1
# experimental-protocol: cell viability relative to DMSO control; higher = less cytotoxic
# test-parameters: HPLM + 10% dialyzed FBS; 48 h; 5.12 µM
outcome-measure: cell viability (%)
Write down the numeric answer in % and omit the unit.

Lookup: System NOMO1. Read-out cell viability. Item C=C(C)[C@@H]1CC[C@]2(C)CC[C@]3(C)[C@H](CC[C@@H]4[C@@]5(C)CC[C@H](O)C(C)(C)[C@@H]5CC[C@]43C)[C@@H]12 . Report value.
Found: 134

Lookup: System NOMO1. Read-out cell viability. Item CSC1=CC(=CC=C1)NC2=NC3=C(C=N2)/C=C(C(=O)N3C)/C4=C(Cl)C=CC=C4Cl . Report value.
Found: 115

Lookup: System NOMO1. Read-out cell viability. Item C[N]1C=NC=C1[C@@](N)(C2=CC=C(Cl)C=C2)C3=CC=C4N(C)C(=O)\C=C(\C5=CC=CC(=C5)Cl)C4=C3 . Report value.
Found: 76.2

Lookup: System NOMO1. Read-out cell viability. Item COc1cc2nccc(Oc3ccc(NC(=O)Nc4ccc(F)cc4F)c(F)c3)c2cc1OC . Report value.
Found: 75

====

# Test system: P12-Ichikawa
# experimental-protocol: cell viability relative to DMSO control; higher = less cytotoxic
# test-parameters: RPMI 5 mM glucose + 10% dialyzed FBS; 48 h; 0.19 µM
outcome-measure: cell viability (%)
Write down the numeric answer in % and omit the unit.

Lookup: Quickly give me recorded cell viability for CNC(=O)[C@H](Cc1ccccc1)NC(=O)[C@H](CC(C)C)[C@H](CSc1cccs1)C(=O)NO
Found: 91

Lookup: Quickly give me recorded cell viability for CN(N=O)C(=O)N[C@H]1C(O)OC(CO)[C@@H](O)[C@@H]1O (some centres undefined)
Found: 76.6

Lookup: Quickly give me recorded cell viability for CC(C)(C)/[N+]([O-])=C/c1ccc([S+](=O)([O-])[O][Na])cc1[S+](=O)([O-])[O][Na]
Found: 120

Lookup: Quickly give me recorded cell viability for Fc1cc(-c2cccc3ncc(-c4cnn(C5CCNCC5)c4)nc23)cc(F)c1CN1CCOCC1
Found: 120

Lookup: Quickly give me recorded cell viability for CC/1=C/N([C@@H]2C[C@@H](O)[C@H](CO)O2)C(=O)NC1=O
Found: 73.3

Lookup: Quickly give me recorded cell viability for O=C(NC1CCOCC1)c1ccc(-c2cc(-c3c[nH]nc3-c3ccccn3)ccn2)cc1
Found: 102

Lookup: Quickly give me recorded cell viability for CN1C(=O)\C(=C/C(=C1/NC2=C(F)C=C(I)C=C2)C(=O)NOCCO)C
Found: 90.7

Lookup: Quickly give me recorded cell viability for Cc1c(C(=O)Nc2ccc(N3C[C@@H](C)O[C@@H](C)C3)nc2)cccc1-c1ccc(OC(F)(F)F)cc1
Found: 126

Lookup: Quickly give me recorded cell viability for Fc1ccc(C(c2ccc(F)cc2)N2CCN(C/C=C/c3ccccc3)CC2)cc1
Found: 110

====

# System: P12-Ichikawa
# experimental-protocol: cell viability relative to DMSO control; higher = less cytotoxic
# test-parameters: HPLM + 10% dialyzed FBS; 48 h; 5.12 µM
Provide the reported cell viability of each item.
Write down the numeric answer in % and omit the unit.

Lookup: System P12-Ichikawa. Read-out cell viability. Item C#CCN(C)[C@H](C)Cc1ccccc1 . Report value.
Found: 92.7

Lookup: System P12-Ichikawa. Read-out cell viability. Item O=C1NC(=O)[C@@H](c2cn3c4c(cccc24)CCC3)[C@@H]1c1c[nH]c2ccccc12 . Report value.
Found: 23.3

Lookup: System P12-Ichikawa. Read-out cell viability. Item COc1ccc(/C=C\c2cc(OC)c(OC)c(OC)c2)cc1O . Report value.
Found: 5.6

Lookup: System P12-Ichikawa. Read-out cell viability. Item Cc1ccc(NC(=O)C2(c3ccc4c(c3)OC(F)(F)O4)CC2)nc1-c1cccc(C(=O)O)c1 . Report value.
Found: 17.2

Lookup: System P12-Ichikawa. Read-out cell viability. Item OC[C@H]1O[C@@H](Oc2ccc(O)cc2)[C@H](O)[C@@H](O)[C@@H]1O . Report value.
Found: 94.2

Lookup: System P12-Ichikawa. Read-out cell viability. Item CC[C@H]1OC(=O)[C@H](C)[C@@H](O[C@H]2C[C@@](C)(OC)[C@@H](O)[C@H](C)O2)[C@H](C)[C@@H](O[C@@H]2O[C@@H](C)C[C@H](N(C)C)[C@H]2O)[C@](C)(O)C[C@@H](C)C(=O)[C@H](C)[C@@H](O)[C@]1(C)O . Report value.
Found: 84

Lookup: System P12-Ichikawa. Read-out cell viability. Item CCC(=O)O[C@@]1([C@@H](C)C[C@H]2[C@@H]3CCC/4=C/C(=O)/C=C\[C@]4(C)[C@@]3(F)[C@@H](O)C[C@]12C)C(=O)CCl . Report value.
Found: 70.2

Lookup: System P12-Ichikawa. Read-out cell viability. Item CC(=O)N1CCN(c2ccc(OCc3nn(C)c(C)c3-c3cccc4c(CCCOc5cc(C)c(Cl)c(C)c5)c(C(=O)O)n(Cc5cccnc5)c34)cc2)CC1 . Report value.
Found: 115

Lookup: System P12-Ichikawa. Read-out cell viability. Item CCCCN(CCCC)CCC(O)c1cc2c(Cl)cc(Cl)cc2c2cc(C(F)(F)F)ccc12 (centres undefined) . Report value.
Found: 131

Lookup: System P12-Ichikawa. Read-out cell viability. Item CSC1=CC(=CC=C1)NC2=NC3=C(C=N2)/C=C(C(=O)N3C)/C4=C(Cl)C=CC=C4Cl . Report value.
Found: 97.4

Lookup: System P12-Ichikawa. Read-out cell viability. Item CNC(=O)[C@H](Cc1ccccc1)NC(=O)[C@H](CC(C)C)[C@H](CSc1cccs1)C(=O)NO . Report value.
Found: 81.9

Lookup: System P12-Ichikawa. Read-out cell viability. Item CC(C)(C)OC(=O)CN(Cc1ccc(Cl)cc1)Cc1ccc([N+](=O)[O-])s1 . Report value.
Found: 91.6

Lookup: System P12-Ichikawa. Read-out cell viability. Item Fc1cc(-c2cccc3ncc(-c4cnn(C5CCNCC5)c4)nc23)cc(F)c1CN1CCOCC1 . Report value.
Found: 68.8

Lookup: System P12-Ichikawa. Read-out cell viability. Item COC(=O)N1CCN(Cc2cccc(NC(=O)Nc3ccc(C)nc3)c2F)CC1 . Report value.
Found: 91

Lookup: System P12-Ichikawa. Read-out cell viability. Item CC[C@]1(O)C[C@H]2CN(CCC3=C([NH]C4=C3C=CC=C4)[C@@](C2)(C(=O)OC)C5=CC6=C(C=C5OC)N(C=O)[C@H]7[C@](O)([C@H](OC(C)=O)[C@]8(CC)\C=C/C[N@@]9CC[C@]67[C@H]89)C(=O)OC)C1 . Report value.
Found: 11.3

Lookup: System P12-Ichikawa. Read-out cell viability. Item C[C@H](NC(=O)C(=O)Nc1ccccc1C(C)(C)C)C(=O)N[C@@H](CC(=O)O)C(=O)COc1c(F)c(F)cc(F)c1F . Report value.
Found: 120

Lookup: System P12-Ichikawa. Read-out cell viability. Item CNC(=O)c1ccc(Nc2ncc(C(F)(F)F)c(NCc3nccnc3N(C)[S+](C)(=O)[O-])n2)cc1 . Report value.
Found: 109

Lookup: System P12-Ichikawa. Read-out cell viability. Item NC(=O)c1ccc(-c2nc(-c3ccc4c(c3)OCCO4)c(-c3ccccn3)[nH]2)cc1 . Report value.
Found: 117

Lookup: System P12-Ichikawa. Read-out cell viability. Item COc1cc2c(Nc3ccc(NC(=O)c4ccccc4)cc3)ncnc2cc1OCCCN1CCOCC1 . Report value.
Found: 45
